Values compiled from patent US20100273189A1.

Target: biotinylated HRP (Armoracia rusticana, UniProt P00433)
Construct: purchased Roche Diagnostics, Indianapolis, Ind., USA
Experiment: Model system for selection of SSIA (M280 btn-BSA-AK1-streptavidin particles + Btn-HRP:HRP)
Type: biochemical
Conditions: SSIA 100 μM; conclusion in words
measured-parameter: effect in the model system / utility as SSIA

compound	result
N[C@@H](CCC(=O)N[C@@H](CS)C(=O)NCC(=O)O)C(=O)O	no effect
O=C(O)CCCC[C@@H]1CCSS1 (racemic)	no effect

----------
Molecular target: biotinylated HRP (Armoracia rusticana, UniProt P00433)
Construct: purchased Roche Diagnostics, Indianapolis, Ind., USA
Assay: Model system for selection of SSIA (M280 btn-BSA-AK1-streptavidin particles + Btn-HRP:HRP)
Assay type: biochemical
Details: Btn-HRP 1 ng/mL vs 0; SSIA 100 μM
measured-parameter: S1/S0

// below: answered compounds
compound	S1/S0
Nc1ccc(C(=O)O)cc1O [4-Amino-3-hydroxybenzoic acid, 4-amino-3-hydroxybenzoic acid]	2.9
Oc1ccc(Cl)cc1O	2.2

a: Cc1c(C)c2c(c(C)c1O)CC[C@@](C)(CCC[C@H](C)CCC[C@H](C)CCCC(C)C)O2 (racemic) [(+/−)-alpha-Tocopherol, (±)-a-Tocopherol]
b: CCCCCCCCCCCCCCCC(=O)OC[C@H](O)[C@H]1OC(=O)C(O)=C1O [Ascorbic Acid 6-palmitate, L-Ascorbic acid 6-Palmitate]
Ask: Given the listed items, does a or b have the lesser reported S1/S0? State your choice using its label.
Reply: a

----------
Tested on: PSA
Assay: Screening SSIA by homogeneous PSA immunoassay
Type: biochemical
Settings: PSA 129 ng/mL (S5) vs zero; test compound final conc. 122 uM
measured-parameter: S5/S0
No unit in the answer, please; the number alone is enough.

molecule	measured-parameter	numeric-value
N[C@@H](CCC(=O)N[C@@H](CS)C(=O)NCC(=O)O)C(=O)O [Glutathione]	S5/S0	77
O=C1O[C@H]([C@@H](O)CO)C([O-])=C1O.[Na+]	S5/S0	9.2
COC1=C(O)C(=O)O[C@@H]1[C@@H](O)CO	S5/S0	16
O=C1O[C@H]([C@@H](O)CO)C(O)=C1O [drawing 64]	S5/S0	10.3
N[C@@H](CS)C(=O)O [L-Cysteine]	S5/S0	22

Ask: What does the data say about its S5/S0? Entry: O=C1O[C@H]([C@H](O)CO)C(O)=C1O
Reply: 10.3

----------
Target: biotinylated HRP (Armoracia rusticana, UniProt P00433)
Construct: purchased Roche Diagnostics, Indianapolis, Ind., USA
Experiment: Model system for selection of SSIA (M280 btn-BSA-AK1-streptavidin particles + Btn-HRP:HRP)
Assay type: biochemical
Details: Btn-HRP 250 ng/mL vs 0; SSIA 100 μM
measured-parameter: S4/S0

Look over these answered cases.
compound	numeric-value
Cc1c(C)c2c(c(C)c1O)CC[C@@](C)(CCC[C@H](C)CCC[C@H](C)CCCC(C)C)O2 (racemic) [(+/−)-alpha-Tocopherol, (±)-a-Tocopherol]	3473.4
CC1(C)CC(O)CC(C)(C)N1[O]	467.6

A: COc1ccc2[nH]cc(CCNC(C)=O)c2c1
B: Nc1ccc(C(=O)O)cc1O [4-Amino-3-hydroxybenzoic acid, 4-amino-3-hydroxybenzoic acid]
C: Cc1c(C)c2c(c(C)c1O)CCC(C)(C(=O)O)O2 (stereo not shown)
D: CC1(C)OC[C@@H]([C@H]2OC(=O)C(O)=C2O)O1
E: Cc1c(O)cc2c(c1C)O[C@](C)(CCC[C@H](C)CCC[C@H](C)CCCC(C)C)CC2 [(+)-gamma-Tocopherol, (+)-y-Tocopherol]
Ask: # rank_down: sort by S4/S0, max first Returns: the labels listed in the requested order.
Reply: C, D, B, E, A
(C: 62274.5, D: 33275, B: 6587.9, E: 1699.4, A: 190.2)

----------
Molecular target: biotinylated HRP (Armoracia rusticana, UniProt P00433)
Construct: purchased Roche Diagnostics, Indianapolis, Ind., USA
Sequence (P00433 31-338 limits assumed): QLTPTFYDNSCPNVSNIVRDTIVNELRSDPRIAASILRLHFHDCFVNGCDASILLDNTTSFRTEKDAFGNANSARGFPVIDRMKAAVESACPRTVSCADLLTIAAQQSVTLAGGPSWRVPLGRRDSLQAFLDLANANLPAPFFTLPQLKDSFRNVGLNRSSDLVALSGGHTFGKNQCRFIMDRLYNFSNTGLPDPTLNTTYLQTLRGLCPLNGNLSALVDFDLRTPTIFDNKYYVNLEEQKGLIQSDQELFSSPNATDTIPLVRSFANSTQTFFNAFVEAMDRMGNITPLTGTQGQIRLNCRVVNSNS
Test: Model system for selection of SSIA (M280 btn-BSA-AK1-streptavidin particles + Btn-HRP:HRP)
Assay type: biochemical
Conditions: Btn-HRP 250 ng/mL vs 0; SSIA 100 μM
measured-parameter: S4/S0

a: COc1cc(C(=O)O)cc(OC)c1O
b: CCCCCCCCCCCCCCCC(=O)OC[C@H](O)[C@H]1OC(=O)C(O)=C1O [Ascorbic Acid 6-palmitate, L-Ascorbic acid 6-Palmitate]
c: N[C@@H](CCC(=O)N[C@@H](CS)C(=O)NCC(=O)O)C(=O)O
Ask: List the compounds shown above again, sorted by falling S4/S0 values. Rank the items, then write their labels in that order.
Reply: b, a, c
(b: 125193.6, a: 658, c: 369.4)

----------
Biological target: biotinylated HRP (Armoracia rusticana, UniProt P00433)
Construct: purchased Roche Diagnostics, Indianapolis, Ind., USA
Sequence (P00433 31-338 limits assumed): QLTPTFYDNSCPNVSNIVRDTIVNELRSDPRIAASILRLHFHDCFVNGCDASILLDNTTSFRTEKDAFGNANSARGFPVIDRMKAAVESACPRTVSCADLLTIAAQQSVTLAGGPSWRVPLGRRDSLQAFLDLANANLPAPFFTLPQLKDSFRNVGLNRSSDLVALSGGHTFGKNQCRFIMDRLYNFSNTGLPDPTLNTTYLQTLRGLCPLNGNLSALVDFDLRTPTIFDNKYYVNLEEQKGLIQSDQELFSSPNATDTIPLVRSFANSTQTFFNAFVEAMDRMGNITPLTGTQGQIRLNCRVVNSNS
Experiment: Model system for selection of SSIA (M280 btn-BSA-AK1-streptavidin particles + Btn-HRP:HRP)
Type: biochemical
Conditions: Btn-HRP 0 ng/mL, total HRP 500 ng/mL; SSIA final 100 μM
measured-parameter: B-HRP0 light intensity

Below, each entry is followed by its recorded B-HRP0 light intensity result.
compound	result
O=C(O)CCCC[C@@H]1CCSS1 (racemic) [Lipoic Acid]	35,016
Oc1ccc(O)c(Cl)c1 [2-chloro-1,4-dihydroxybenzene]	3,571
CC1(C)CC(O)CC(C)(C)N1[O] [TEMPOL]	22,621
COc1cc(/C=C/C(=O)O)ccc1O [Ferulic acid]	5,252

Next item in the queue.
Ask: Tell me reported B-HRP0 light intensity for Cc1c(C)c2c(c(C)c1O)CC[C@@](C)(CCC[C@H](C)CCC[C@H](C)CCCC(C)C)O2 (racemic) [(+/−)-alpha-Tocopherol, (±)-a-Tocopherol] , tested with biotinylated HRP (Armoracia rusticana, UniProt P00433).
Reply: 2,772

----------
Target: biotinylated HRP (Armoracia rusticana)
Construct: purchased Roche Diagnostics, Indianapolis, Ind., USA
Sequence (P00433 31-338 limits assumed): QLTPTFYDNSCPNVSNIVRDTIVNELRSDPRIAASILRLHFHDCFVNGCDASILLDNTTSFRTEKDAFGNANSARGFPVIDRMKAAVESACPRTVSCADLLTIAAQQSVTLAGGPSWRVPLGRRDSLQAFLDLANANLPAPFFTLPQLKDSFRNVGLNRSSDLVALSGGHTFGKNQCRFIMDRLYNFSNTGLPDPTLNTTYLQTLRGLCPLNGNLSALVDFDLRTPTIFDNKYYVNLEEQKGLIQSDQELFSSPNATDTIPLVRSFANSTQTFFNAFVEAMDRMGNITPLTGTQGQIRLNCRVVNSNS
Assay: Model system for selection of SSIA (M280 btn-BSA-AK1-streptavidin particles + Btn-HRP:HRP)
Format: biochemical
Settings: Btn-HRP 0 ng/mL, total HRP 500 ng/mL; SSIA final 100 μM
measured-parameter: B-HRP0 light intensity

molecule	measured-parameter	result
N[C@@H](CS)C(=O)O [Cysteine]	B-HRP0 light intensity	35,695
Cc1c(O)cc2c(c1C)O[C@](C)(CCC[C@H](C)CCC[C@H](C)CCCC(C)C)CC2 [(+)-gamma-Tocopherol, (+)-y-Tocopherol]	B-HRP0 light intensity	6,051

Now for the molecule whose B-HRP0 light intensity we want.
Ask: Could you share which B-HRP0 light intensity value was measured for NNC(=O)c1cccnc1 [Nicotinic Hydrazide] ?
Reply: 42,260
